experiment: In vivo kinetics experiment (radioactivity distribution); set-up: species or system Wistar male rat; details: rat, caudal vein, 10 min after administration
property_label: Radioactivity distribution Heart (% ID/g)
Numbers only; they are read as % ID/g.

The cases that follow already have their Radioactivity distribution Heart on record.
# molecule, Radioactivity distribution Heart [% ID/g]
rows = [
    ("[123I]c1ccc2nc(-c3cncc(Cn4ccnc4)c3)n(C3CC3)c2c1 [[^123I] 602]", 0.63),
    ("Fc1cc2nc(-c3cncc(Cn4ccnc4)c3)n(CCC[18F])c2cc1Cl [[^18F] 500]", 0.31),
    ("[123I]c1ccc2nc(-c3cncc(Cn4ccnn4)c3)n(C3CC3)c2c1 [[^123I] 603]", 0.65),
]

Prompt: // returns reported Radioactivity distribution Heart for input FCCn1c(-c2cncc(Cn3ccnc3)c2)nc2cc(F)c([123I])cc21 [[^123I] 400]
Completion: 0.63

Prompt: // returns reported Radioactivity distribution Heart for input Fc1cc2nc(-c3cncc(Cn4ccnc4)c3)n(CC[18F])c2cc1Cl [[^18F] 100]
Completion: 0.32

Prompt: // returns reported Radioactivity distribution Heart for input Fc1cc2nc(-c3cncc(Cn4ccnc4)c3)n(CC[18F])c2cc1Br [[^18F] 200]
Completion: 0.32

* * *

assay: In vivo kinetics experiment (radioactivity distribution); parameters: species or system Wistar male rat; settings: 30 min after administration; rat i.v.; mean ± SD
Adrenal gland/kidney ratio of radioactivity accumulation values, listed per item
Keep it simple and answer with nothing but the number.

# molecule, obs_value
data = [
    ("COC(=O)c1cncn1[C@H](C)c1ccc(I)cc1 [[^123I] IMTO, (R)-[^123I]iodometomidate, reference compound]", 16.66),
    ("CCn1c(-c2cncc(Cn3ccnc3)c2)nc2ccc([123I])cc21 [[^123I] 608]", 5.90),
    ("FCCn1c(-c2cncc(Cn3ccnc3)c2)nc2ccc([123I])cc21 [[^123I] 604]", 9.69),
]

Prompt: // returns reported Adrenal gland/kidney ratio of radioactivity accumulation for input FCCn1c(-c2cncc(Cn3cncc3[123I])c2)nc2cc(F)c(Cl)cc21 [[^123I] 610]
Completion: 28.65

Prompt: // returns reported Adrenal gland/kidney ratio of radioactivity accumulation for input CC(C)n1c(-c2cncc(Cn3ccnc3)c2)nc2ccc([123I])cc21 [[^123I] 606]
Completion: 20.98

Prompt: // returns reported Adrenal gland/kidney ratio of radioactivity accumulation for input Fc1cc2nc(-c3cncc(Cn4ccnc4)c3)n(Cc3ccc([123I])cc3)c2cc1Cl [[^123I] 605]
Completion: 2.58

Prompt: // returns reported Adrenal gland/kidney ratio of radioactivity accumulation for input Cn1c(-c2cncc(Cn3ccnc3)c2)nc2ccc([123I])cc21 [[^123I] 607]
Completion: 12.63

Prompt: // returns reported Adrenal gland/kidney ratio of radioactivity accumulation for input COc1cc([123I])cc2c1nc(-c1cncc(Cn3ccnc3)c1)n2C1CC1 [[^123I] 609]
Completion: 11.13

* * *

test: In vivo kinetics experiment (radioactivity distribution); parameters: species or system Wistar male rat; conditions: 60 min after administration; rat i.v.; mean ± SD
property_label: Adrenal gland/kidney ratio of radioactivity accumulation
Keep it simple and answer with nothing but the number.

The cases that follow already have their Adrenal gland/kidney ratio of radioactivity accumulation on record.
# molecule, obs_value
records = [
    ("COC(=O)c1cncn1[C@H](C)c1ccc(I)cc1 [[^123I] IMTO, (R)-[^123I]iodometomidate, reference compound]", 18.20),
    ("CC(C)n1c(-c2cncc(Cn3ccnc3)c2)nc2ccc([123I])cc21 [[^123I] 606]", 22.62),
    ("FCCn1c(-c2cncc(Cn3ccnc3)c2)nc2ccc([123I])cc21 [[^123I] 604]", 15.22),
]

Prompt: // returns reported Adrenal gland/kidney ratio of radioactivity accumulation for input Cn1c(-c2cncc(Cn3ccnc3)c2)nc2ccc([123I])cc21 [[^123I] 607]
Completion: 18.18

Prompt: // returns reported Adrenal gland/kidney ratio of radioactivity accumulation for input CCn1c(-c2cncc(Cn3ccnc3)c2)nc2ccc([123I])cc21 [[^123I] 608]
Completion: 10.46

Prompt: // returns reported Adrenal gland/kidney ratio of radioactivity accumulation for input FCCn1c(-c2cncc(Cn3cncc3[123I])c2)nc2cc(F)c(Cl)cc21 [[^123I] 610]
Completion: 40.68

Prompt: // returns reported Adrenal gland/kidney ratio of radioactivity accumulation for input COc1cc([123I])cc2c1nc(-c1cncc(Cn3ccnc3)c1)n2C1CC1 [[^123I] 609]
Completion: 13.00

Prompt: // returns reported Adrenal gland/kidney ratio of radioactivity accumulation for input Fc1cc2nc(-c3cncc(Cn4ccnc4)c3)n(Cc3ccc([123I])cc3)c2cc1Cl [[^123I] 605]
Completion: 2.05
